- Species: Rattus norvegicus
- test_summary: DrugMatrix - Regimen: Daily Repeat
- Type: toxicity, organism-based, Sprague-Dawley
- Set-up: regimen Daily Repeat, gender Male, age 6-8 weeks
- condition_info: in vivo, po, 100 mg/kg, 120 h, tissue Blood, route oral GAVAGE, dose level Low, time 5 day, vehicle .5 % CMC
reported_endpoint: MEAN CORPUSCULAR VOLUME (fL)

compound="Nc1nc2c(c(=O)[nH]1)N(C=O)C(CNc1ccc(C(=O)N[C@@H](CCC(=O)O)C(=O)O)cc1)CN2 (some centres undefined) [LEUCOVORIN]" recorded_result=65.23
compound="CC=Cc1ccc(O)c(OC)c1 [ISOEUGENOL]" recorded_result=61.17
compound="C#C[C@]1(O)CC[C@H]2[C@@H]3CCC4=Cc5oncc5C[C@]4(C)[C@H]3CC[C@@]21C [DANAZOL]" recorded_result=61.07
compound=CC[C@]1(O)CC[C@H]2[C@@H]3CCC4=CCCC[C@@H]4[C@H]3CC[C@@]21C recorded_result=64.47
